For each entry below, report its BODIPY-LDL uptake by HepG2 cells, fluorescence, 4.2 nM, replicate 2 value.
study system: human PCSK9 (PCSK9 antigen, SEQ ID NO. 53) (human, UniProt A8T644 31-152; Q8NBP7 153-692, Biotin-labelled on amines in the MSD-SET and sorting experiments; positions not given.); note: unit not given here
experimental protocol: cell-based or functional assay
Give bare numbers.

Would you mind giving BODIPY-LDL uptake by HepG2 cells, fluorescence, 4.2 nM, replicate 2 for every binder in the list below?
1. ADI-10088 (antibody, human IgG2, kappa, V domains shown, IgG) VH: QLQLQESGPGLVKPSETLSLTCTVSGGSIGSSSYYWAWIRQPPGKGLEWIGSINYRGSTYYNPSLKSRVTISVDTSKNQFSLKLSSVTAADTAVYYCARENSGVVPAAGPNWFDPWGQGTLVTVSS VL: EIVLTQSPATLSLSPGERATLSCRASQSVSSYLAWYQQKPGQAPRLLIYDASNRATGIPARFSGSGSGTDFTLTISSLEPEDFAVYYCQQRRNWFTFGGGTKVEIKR
2. ADI-10089 (antibody, human IgG2, kappa, V domains shown, IgG) VH: QLQLQESGPGLVKPSETLSLTCTVSGGSIGSSSYYWTWIRQPPGKGLEWIGSINYRGSTYYNPSLKSRVTISVDTSKNQFSLKLSSVTAADTAVYYCARENSGVVPAAGPNWFDPWGQGTLVTVSS VL: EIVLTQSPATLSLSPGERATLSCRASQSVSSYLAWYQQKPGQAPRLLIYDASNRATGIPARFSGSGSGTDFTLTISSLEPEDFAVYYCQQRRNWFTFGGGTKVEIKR
3. ADI-10087 (antibody, human IgG2, kappa, V domains shown, also called anti-PCSK antibody of the invention) VH: QLQLQESGPGLVKPSETLSLTCTVSGGSISSASYYWSWIRQPPGKGLEWIGSINYRGSTYYNPSLKSRVTISVDTSKNQFSLKLSSVTAADTAVYYCARENSGVVPAAGPNWFGPWGQGTLVTVSS VL: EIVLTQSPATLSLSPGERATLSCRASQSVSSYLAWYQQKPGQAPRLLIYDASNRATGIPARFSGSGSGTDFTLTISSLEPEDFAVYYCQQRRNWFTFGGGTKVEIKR

Marked response:
[0.401, 0.399, 0.403]
